Tested on: A549
Experimental protocol: Cytotoxicity against human A549 cells incubated for 48 hrs by SRB assay
Format: cell-based
Condition summary: A549, 48 h
Hi there, I'd appreciate the recorded IC50 for every entry that follows.
Numeric answer only, unit µg/mL assumed.

Lab note: need IC50 with A549 for entry O=C(Cn1cc(-c2ccccc2C(F)(F)F)nn1)Nc1c(C(F)(F)F)n[nH]c1-c1ccccc1 , please look it up.
64.2

Lab note: need IC50 with A549 for entry COc1cccc2c1C(=O)c1c(O)c3c(c(O)c1C2=O)C[C@@](O)(C(=O)CO)C[C@@H]3O[C@H]1C[C@H](N)[C@H](O)[C@H](C)O1 [DOXORUBICIN] , please look it up.
8.5

Lab note: need IC50 with A549 for entry NNC(=O)c1cn(CC(=O)Nc2c(C(F)(F)F)n[nH]c2-c2ccccc2)nn1 , please look it up.
67.6

Lab note: need IC50 with A549 for entry COc1ccc(-c2nn(-c3ccccc3)cc2C(=O)c2cn(CC(=O)Nc3c(C(F)(F)F)n[nH]c3-c3ccccc3)nn2)cc1 , please look it up.
59.6

Lab note: need IC50 with A549 for entry COc1cccc(NCc2cn(CC(=O)Nc3c(C(F)(F)F)n[nH]c3-c3ccccc3)nn2)c1 , please look it up.
38.3

Lab note: need IC50 with A549 for entry O=C(Cn1cc(-c2ccc(OC(F)(F)F)cc2)nn1)Nc1c(C(F)(F)F)n[nH]c1-c1ccccc1 , please look it up.
45.3

Lab note: need IC50 with A549 for entry O=C(Cn1cc(CNc2cccc(C(F)(F)F)c2)nn1)Nc1c(C(F)(F)F)n[nH]c1-c1ccccc1 , please look it up.
25.3

Lab note: need IC50 with A549 for entry CC(C)(C)c1ccc(-c2cn(CC(=O)Nc3c(C(F)(F)F)n[nH]c3-c3ccccc3)nn2)cc1 , please look it up.
25.8

Lab note: need IC50 with A549 for entry COc1ccc(C(=O)c2cn(CC(=O)Nc3c(C(F)(F)F)n[nH]c3-c3ccccc3)nn2)cc1 , please look it up.
80.7

Lab note: need IC50 with A549 for entry O=C(Cn1cc(-c2ccc(-c3ccccc3)cc2)nn1)Nc1c(C(F)(F)F)n[nH]c1-c1ccccc1 , please look it up.
57

Lab note: need IC50 with A549 for entry COc1ccc(-c2cn(CC(=O)Nc3c(C(F)(F)F)n[nH]c3-c3ccccc3)nn2)c(C)c1 , please look it up.
54

Lab note: need IC50 with A549 for entry COc1ccc(C(=O)c2cn(CC(=O)Nc3c(C(F)(F)F)n[nH]c3-c3ccccc3)nn2)cc1OC , please look it up.
26.8

Lab note: need IC50 with A549 for entry O=C(Cn1cc(C(=O)c2cn(-c3ccccc3)nc2-c2ccccc2)nn1)Nc1c(C(F)(F)F)n[nH]c1-c1ccccc1 , please look it up.
68

Lab note: need IC50 with A549 for entry Cc1cccc(C)c1NCc1cn(CC(=O)Nc2c(C(F)(F)F)n[nH]c2-c2ccccc2)nn1 , please look it up.
52.9

Lab note: need IC50 with A549 for entry O=C(Cn1cc(-c2ccccc2)nn1)Nc1c(C(F)(F)F)n[nH]c1-c1ccccc1 , please look it up.
52.2

Lab note: need IC50 with A549 for entry Cc1cccc(-c2cn(CC(=O)Nc3c(C(F)(F)F)n[nH]c3-c3ccccc3)nn2)c1 , please look it up.
60.6
